Dear all, this message contains IC50 results, target or system Dual specificity protein kinase CLK3 (Homo sapiens).
measured_attribute: IC50 (nM)

{"columns": ["molecule", "target_entity", "unit_abbrev", "result_operator", "assay_value"],
 "data": [
  ["Cn1cnc2cc(/C=C3\\N=C(NC4CCCCC4)NC3=O)ccc21", "Dual specificity protein kinase CLK3 (Homo sapiens)", "nM", ">", 10000],
  ["Cn1ccc2cc(/C=C3\\N=C(NC45CC6CC(CC(C6)C4)C5)NC3=O)ccc21", "Dual specificity protein kinase CLK3 (Homo sapiens)", "nM", ">", 10000],
  ["COC(=O)[C@@H](Cc1ccccc1)NC1=N/C(=C\\c2ccc3ncsc3c2)C(=O)N1", "Dual specificity protein kinase CLK3 (Homo sapiens)", "nM", ">", 10000],
  ["O=C1NC(N[C@H]2CCCOC2)=N/C1=C\\c1ccc2ncsc2c1", "Dual specificity protein kinase CLK3 (Homo sapiens)", "nM", "=", 119],
  ["CN1CCN(c2ccc(NC3=N/C(=C\\c4ccc5ncsc5c4)C(=O)N3)cc2)CC1", "Dual specificity protein kinase CLK3 (Homo sapiens)", "nM", "=", 1060],
  ["O=C1NC(NC23CC4CC(CC(C4)C2)C3)=N/C1=C\\c1ccc2c(c1)CCO2", "Dual specificity protein kinase CLK3 (Homo sapiens)", "nM", ">", 10000],
  ["CC(C)(C)C(=O)OC12CC3CC(CC(NC4=N/C(=C\\c5ccc6ncsc6c5)C(=O)N4)(C3)C1)C2", "Dual specificity protein kinase CLK3 (Homo sapiens)", "nM", ">", 10000],
  ["Cn1cc2cc(/C=C3\\N=C(NC45CC6CC(CC(C6)C4)C5)NC3=O)ccc2n1", "Dual specificity protein kinase CLK3 (Homo sapiens)", "nM", ">", 10000],
  ["CO[C@H]1Cc2ccccc2[C@H]1NC1=N/C(=C\\c2ccc3ncsc3c2)C(=O)N1 (racemic)", "Dual specificity protein kinase CLK3 (Homo sapiens)", "nM", ">", 10000],
  ["COCC(Cc1ccccc1)NC1=N/C(=C\\c2ccc3ncsc3c2)C(=O)N1 (configuration not stated)", "Dual specificity protein kinase CLK3 (Homo sapiens)", "nM", "=", 808],
  ["COC(=O)[C@H](C)NC1=N/C(=C\\c2ccc3ncsc3c2)C(=O)N1", "Dual specificity protein kinase CLK3 (Homo sapiens)", "nM", "=", 284],
  ["CS(=O)(=O)NC12CC3CC(CC(NC4=N/C(=C\\c5ccc6ncsc6c5)C(=O)N4)(C3)C1)C2", "Dual specificity protein kinase CLK3 (Homo sapiens)", "nM", "=", 1020]
]}

* * *

Dual specificity protein kinase CLK1 (Homo sapiens, UniProt P49759): recorded pIC50 for assorted compounds
Sequence (P49759 whole entry): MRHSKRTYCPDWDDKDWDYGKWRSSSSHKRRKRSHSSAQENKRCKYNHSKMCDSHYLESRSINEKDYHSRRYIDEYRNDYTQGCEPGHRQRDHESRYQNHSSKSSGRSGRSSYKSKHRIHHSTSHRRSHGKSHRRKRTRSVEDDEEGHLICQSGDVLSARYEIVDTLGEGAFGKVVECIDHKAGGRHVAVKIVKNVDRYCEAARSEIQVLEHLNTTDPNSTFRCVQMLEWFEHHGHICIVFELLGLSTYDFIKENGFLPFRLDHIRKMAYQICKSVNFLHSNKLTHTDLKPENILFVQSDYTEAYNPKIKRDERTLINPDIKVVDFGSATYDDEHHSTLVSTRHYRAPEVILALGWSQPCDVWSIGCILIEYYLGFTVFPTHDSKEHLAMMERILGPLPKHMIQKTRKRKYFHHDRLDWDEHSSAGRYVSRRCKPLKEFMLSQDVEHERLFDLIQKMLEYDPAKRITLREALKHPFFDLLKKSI
pIC50: −log10 of the molar value.

{"columns": ["line_notation", "target_entity", "result_operator", "pIC50"],
 "data": [
  ["O=C1NC(NC2CCCCCC2)=N/C1=C\\c1ccc2ncoc2c1", "Dual specificity protein kinase CLK1 (Homo sapiens, UniProt P49759)", "=", 7.74],
  ["Cn1ccc2cc(/C=C3\\N=C(NC45CC6CC(CC(C6)C4)C5)NC3=O)ccc21", "Dual specificity protein kinase CLK1 (Homo sapiens, UniProt P49759)", "<", 5.00],
  ["CN1CCN(c2ccc(NC3=N/C(=C\\c4ccc5c(c4)OCCO5)C(=O)N3)cc2)CC1", "Dual specificity protein kinase CLK1 (Homo sapiens, UniProt P49759)", "=", 7.77],
  ["Cn1cnc2ccc(/C=C3\\N=C(NC4CCCCCC4)NC3=O)cc21", "Dual specificity protein kinase CLK1 (Homo sapiens, UniProt P49759)", "=", 7.77],
  ["O=C1NC(NC2CCCCCC2)=N/C1=C\\c1ccc2[nH]ccc2c1", "Dual specificity protein kinase CLK1 (Homo sapiens, UniProt P49759)", "<", 5.00]
]}
